# run-description: Compound was tested for its binding affinity at Thromboxane A2/ Prostaglandin H2 receptor by measuring its ability to displace [3H]U-46619 from guinea pig platelets
quantity-name: Ki (nM)
Write down the numeric answer in nM and omit the unit.

# get_value(readout='Ki', item= `COc1ccc2ncn(C/C=C3\c4ccccc4COc4ccc(C(=O)O)cc43)c2c1` )
12

Next: `Cc1cc2ncn(C/C=C3\c4ccccc4COc4ccc(CC(=O)O)cc43)c2cc1C`
63

Repeat with `O=C(O)c1ccc2c(c1)/C(=C/CNS(=O)(=O)c1ccccc1)c1ccccc1CO2`
11

Then this compound: `Cc1cc2ncn(C/C=C3\c4ccccc4COc4ccc(C(=O)O)cc43)c2cc1C`
2.7

Moving on to the next compound: `Cc1ccc2c(ncn2C/C=C2\c3ccccc3COc3ccc(C(=O)O)cc32)c1C`
3.6

Query `Cc1ccc2c(c1)ncn2C/C=C1\c2ccccc2COc2ccc(C(=O)O)cc21` next
15

Similarly, `O=C(O)c1ccc2c(c1)/C(=C/Cn1cnc(-c3ccccc3)c1-c1ccccc1)c1ccccc1CO2` ?
164

Continue with `O=C(O)c1ccc2c(c1)/C(=C/Cn1cnc3cc([N+](=O)[O-])ccc31)c1ccccc1CO2`
1.8

Input `O=C(O)c1ccc2c(c1)/C(=C\Cn1cnc3ccccc31)c1ccccc1CO2`
15

Every entry's value here was drawn from BindingDB's records for doi:10.1021/jm00096a017.
